Reference for the values: patent US20240174690A1

# System: SAS cells
# Assay remarks: SAS CTG proliferation assay (120 h) (HNSCC, wt amplified)
# Assay type: cell-based
pIC50: −log10 of the molar value.
Reported pIC50 values are given for each entry in this list.

Molecule: C[C@H](Oc1cc(-n2cc(C(=O)N(C)C)nn2)nc(-c2noc3c2CCC[C@@]32CCCc3sc(N)c(C#N)c32)n1)[C@@H]1CCCN1C [II-132]
pIC50: 6.50

Molecule: C[C@H](Oc1cc(-c2ccncc2)nc(-c2noc3c2CCC[C@@]32CCCc3sc(N)c(C#N)c32)n1)[C@@H]1CCCN1C [II-78]
pIC50: 6.50

Molecule: C[C@H](Oc1cc(-c2ccn(-c3ccsc3)n2)nc(-c2noc3c2CCC[C@@]32CCCc3sc(N)c(C#N)c32)n1)[C@@H]1CCCN1C [II-84]
pIC50: 7.28

Molecule: C[C@H](Oc1cc(-c2ccn(C3COC3)n2)nc(-c2onc3c2CCC[C@@]32CCCc3sc(N)c(C#N)c32)n1)[C@@H]1CCCN1C [I-34]
pIC50: 6.73

Molecule: C[C@H](Oc1cc([C@H]2CCNC2)nc(-c2noc3c2CCC[C@@]32CCCc3sc(N)c(C#N)c32)n1)[C@@H]1CCCN1C [II-163]
pIC50: 6.56

Molecule: C[C@H](Oc1cc(N2CCN(C)C3(CC3)C2)nc(-c2noc3c2CCC[C@@]32CCCc3sc(N)c(C#N)c32)n1)[C@@H]1CCCN1C [II-171]
pIC50: 5.96

====

IC50 by entry:
# Test system: KRAS G12C-dependent Ba/F3 cells
# Assay remarks: Ba/F3 proliferation assay, KRAS G12C
# Format: cell-based
# Run parameters: Mus musculus, BaF3, 72 h, AlamarBlue

Structure notation: CC(C)NC(=O)Cc1ccn(-c2cc(O[C@@H](C)[C@@H]3CCCN3C)nc(-c3noc4c3CCC[C@@]43CCCc4sc(N)c(C#N)c43)n2)n1
IC50 / nM: 5
//
Structure notation: C[C@@H]1CN(c2cc(O[C@@H](C)[C@@H]3CCCN3C)nc(-c3noc4c3CCC[C@@]43CCCc4sc(N)c(C#N)c43)n2)C[C@H](C)N1
IC50 / nM: 330
//
Structure notation: C[C@H](Oc1cc(-c2cnsc2)nc(-c2onc3c2CCC[C@@]32CCCc3sc(N)c(C#N)c32)n1)[C@@H]1CCCN1C
IC50 / nM: 18

====

# Assay remarks: Solubility measurement (DMSO solution method), McIlvaine buffer pH 4.5 or 6.8
# Type: physicochemical
# Run parameters: aqueous buffer, kinetic from dmso stock; McIlvaine buffer pH 4.5; DMSO stock diluted to 250 μM; 24 h shaking at ambient temperature; read-out: solubility pH 4.5

Compound: C[C@H](Oc1cc(N2CCNC3(CC3)C2)nc(-c2onc3c2CCC[C@@]32CCCc3sc(N)c(C#N)c32)n1)[C@@H]1C[C@@H](F)CN1C [I-45]
solubility at 24 h: > 148 µg/mL
//
Compound: C[C@H](Oc1cc(-n2cc3ccn(C[C@H]4CCOC4)c(=O)c3n2)nc(-c2noc3c2CCC[C@@]32CCCc3sc(N)c(C#N)c32)n1)[C@@H]1CCCN1C [II-204]
solubility at 24 h: 4 µg/mL
//
Compound: C[C@H](Oc1cc(N2Cc3cnn(C)c3C2)nc(-c2onc3c2CCC[C@@]32CCCc3sc(N)c(C#N)c32)n1)[C@@H]1CCCN1C [I-19]
solubility at 24 h: 48 µg/mL
//
Compound: C[C@H](O)Cn1ccc(-c2cc(O[C@@H](C)[C@@H]3CCCN3C)nc(-c3noc4c3CCC[C@@]43CCCc4sc(N)c(C#N)c43)n2)n1 [II-112]
solubility at 24 h: > 139 µg/mL
//
Compound: C[C@H](Oc1cc(N2CC(N(C)C)C2)nc(-c2noc3c2CCC[C@@]32CCCc3sc(N)c(C#N)c32)n1)[C@@H]1CCCN1C [II-7]
solubility at 24 h: > 141 µg/mL
//
Compound: C[C@H](Oc1nc(-c2noc3c2CCC[C@@]32CCCc3sc(N)c(C#N)c32)nc(N2C[C@H](C)NC3(CC3)C2)c1F)[C@@H]1C[C@@H](F)CN1C [II-157]
solubility at 24 h: > 147 µg/mL
//
Compound: C[C@H](Oc1cc(N2C[C@H](C)NC3(CC3)C2)nc(-c2noc3c2CCC[C@@]32CCCc3sc(N)c(C#N)c32)n1)[C@@H]1C[C@@H](F)CN1C [II-18]
solubility at 24 h: > 146 µg/mL
//
Compound: [2H]C([2H])([2H])N1C[C@H](F)C[C@H]1[C@H](C)Oc1cc(N2CCN(C([2H])([2H])[2H])C3(CC3)C2)nc(-c2noc3c2CCC[C@@]32CCCc3sc(N)c(C#N)c32)n1 [II-207]
solubility at 24 h: > 134 µg/mL
//
Compound: Cc1nc(-c2cc(O[C@@H](C)[C@@H]3CCCN3C)nc(-c3noc4c3CCC[C@@]43CCCc4sc(N)c(C#N)c43)n2)cs1 [II-103]
solubility at 24 h: 53 µg/mL
//
Compound: C[C@H](Oc1cc(-c2ccn(C[C@@H](C)O)n2)nc(-c2noc3c2CCC[C@@]32CCCc3sc(N)c(C#N)c32)n1)[C@@H]1CCCN1C [II-117]
solubility at 24 h: > 183 µg/mL
//
Compound: C[C@H](Oc1cc([C@@H]2CCN(C)C2)nc(-c2noc3c2CCC[C@@]32CCCc3sc(N)c(C#N)c32)n1)[C@@H]1CCCN1C [II-37]
solubility at 24 h: > 152 µg/mL
//
Compound: C[C@H](Oc1cc(-n2ccnc2Cl)nc(-c2noc3c2CCC[C@@]32CCCc3sc(N)c(C#N)c32)n1)[C@@H]1CCCN1C [II-93]
solubility at 24 h: 97 µg/mL
//
Compound: C[C@H](Oc1cc(N2CCC(C#N)C2)nc(-c2noc3c2CCC[C@@]32CCCc3sc(N)c(C#N)c32)n1)[C@@H]1CCCN1C (stereo partly drawn) [II-99]
solubility at 24 h: 115 µg/mL
//
Compound: C[C@H](Oc1cc(N2CCNC[C@]23CCOC3)nc(-c2onc3c2CCC[C@@]32CCCc3sc(N)c(C#N)c32)n1)[C@@H]1CCCN1C [I-12]
solubility at 24 h: > 152 µg/mL
//
Compound: CO[C@H]1CCN(C)[C@@H]1[C@H](C)Oc1cc(N2CCN(C)C3(CC3)C2)nc(-c2noc3c2CCC[C@@]32CCCc3sc(N)c(C#N)c32)n1 [II-186]
solubility at 24 h: > 140 µg/mL
//
Compound: C[C@H](Oc1cc(-c2ccn(C)n2)nc(-c2noc3c2CCC[C@@]32CCCc3sc(N)c(C#N)c32)n1)[C@@H]1C[C@@H](F)CN1C [II-27]
solubility at 24 h: 108 µg/mL
//
Compound: C[C@H](Oc1cc(N2CCNC3(CC3)C2)nc(-c2noc3c2CCC[C@@]32CCCc3sc(N)c(C#N)c32)n1)[C@@H]1CCCN1C [II-54]
solubility at 24 h: > 134 µg/mL
//
Compound: CO[C@H]1CCN(C)[C@@H]1[C@H](C)Oc1cc(N2CCNC3(CC3)C2)nc(-c2onc3c2CCC[C@@]32CCCc3sc(N)c(C#N)c32)n1 [I-49]
solubility at 24 h: > 154 µg/mL
//
Compound: CO[C@H]1CCN(C)[C@@H]1[C@H](C)Oc1cc(N2CCNC3(CC3)C2)nc(-c2noc3c2CCC[C@@]32CCCc3sc(N)c(C#N)c32)n1 [II-184]
solubility at 24 h: > 158 µg/mL
//
Compound: CO[C@H]1CCN(C)[C@@H]1[C@H](C)Oc1cc(-n2ccc(CC(=O)NC(C)C)n2)nc(-c2onc3c2CCC[C@@]32CCCc3sc(N)c(C#N)c32)n1 [I-48]
solubility at 24 h: > 161 µg/mL
//
Compound: C[C@H](Oc1nc(-c2noc3c2CCC[C@@]32CCCc3sc(N)c(C#N)c32)nc(N2CCNC3(CC3)C2)c1F)[C@@H]1C[C@@H](F)CN1C [II-155]
solubility at 24 h: > 153 µg/mL
//
Compound: CC(C)N1CCCN(c2cc(-n3ccnc3)nc(-c3noc4c3CCC[C@@]43CCCc4sc(N)c(C#N)c43)n2)[C@@H](C)C1 [II-169]
solubility at 24 h: > 124 µg/mL
//
Compound: C[C@H](Oc1cc(-c2cn(C3COC3)nn2)nc(-c2noc3c2CCC[C@@]32CCCc3sc(N)c(C#N)c32)n1)[C@@H]1CCCN1C [II-100]
solubility at 24 h: 120 µg/mL
//
Compound: C[C@H](Oc1cc(-c2cccc(C(N)=O)c2)nc(-c2noc3c2CCC[C@@]32CCCc3sc(N)c(C#N)c32)n1)[C@@H]1CCCN1C [II-133]
solubility at 24 h: 3 µg/mL
